- EXPERIMENTAL TARGET: Human M4 (Homo sapiens, UniProt P08173)
- Construct: Human or rat M4 cDNA, along with the chimeric G protein Gqi5, were transfected into Chinese hamster ovary (CHO-K1) cells
- Sequence (P08173 1-479): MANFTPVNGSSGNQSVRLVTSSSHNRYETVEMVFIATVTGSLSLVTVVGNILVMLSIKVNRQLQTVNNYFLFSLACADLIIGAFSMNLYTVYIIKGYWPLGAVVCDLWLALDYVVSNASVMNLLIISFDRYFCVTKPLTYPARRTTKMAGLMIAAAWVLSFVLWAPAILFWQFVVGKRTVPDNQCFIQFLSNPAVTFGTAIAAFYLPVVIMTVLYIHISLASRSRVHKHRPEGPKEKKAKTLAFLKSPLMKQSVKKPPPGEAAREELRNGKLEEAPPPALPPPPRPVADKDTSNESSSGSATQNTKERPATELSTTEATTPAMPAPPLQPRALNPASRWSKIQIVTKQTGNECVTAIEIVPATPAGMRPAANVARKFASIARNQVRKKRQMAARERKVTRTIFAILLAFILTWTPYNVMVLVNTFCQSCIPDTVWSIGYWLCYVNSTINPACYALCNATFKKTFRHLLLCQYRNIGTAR
- EXPERIMENT: mAChR M4 cell-based functional assay (calcium flux, decrease of EC80 acetylcholine response)
- EXPERIMENTAL CONTEXT: M4/Gqi5/CHO-K1 cells; decrease of response to EC80 acetylcholine
I'd be grateful if you could share measured pIC50 for these entries.
Lab note: report pIC50 as minus log10 of the concentration in molar units, number only.

Answer with the recorded pIC50 of FC(F)(F)Oc1ccccc1-c1cc(C(F)(F)F)c(N[C@H]2C[C@@H]3CN(CC4CCOCC4)C[C@@H]3C2)nn1 [Example 58] only.
6.60

Give reported pIC50 value for [2H]C([2H])([C@H]1CCCCO1)N1C[C@H]2C[C@H](Nc3nnc(-c4cc(C)ccc4C)cc3C(F)(F)F)C[C@H]2C1 [Example 114]
6.63

Fill in reported pIC50 for this entry: [2H]C([2H])(C1CCOCC1)N1C[C@H]2C[C@H](Nc3nnc(-c4cc(F)ccc4C(F)(F)F)cc3C(F)(F)F)C[C@H]2C1 [Example 99]
7.26

Return value of pIC50 for input Fc1ccc(F)c(-c2cc(C(F)(F)F)c(N[C@H]3C[C@@H]4CN(C[C@@H]5COCCO5)C[C@@H]4C3)nn2)c1 [Example 69] , no commentary.
6.62

Please report pIC50 for the following compound: Cn1cc2cc(-c3cc(C(F)(F)F)c(N[C@H]4C[C@@H]5CN(CC6CCCOC6)C[C@@H]5C4)nn3)ccc2n1 (single isomer, unassigned) [Example 37]
7.12

Give the reported value of pIC50 for this record: Cn1cc2cc(-c3cc(C(F)(F)F)c(N[C@H]4C[C@@H]5CN(CC6CCCOC6)C[C@@H]5C4)nn3)ccc2n1 (single isomer, unassigned) [Example 36]
7.00

Output pIC50 of Cn1cc2cc(-c3cc(C#N)c(N[C@H]4C[C@@H]5CN(C[C@H]6CCOC6)C[C@@H]5C4)nn3)ccc2n1 [Example 155]
6.99

---

- EXPERIMENTAL TARGET: Human M4 (Homo sapiens, UniProt P08173)
- Construct: Human or rat M4 cDNA, along with the chimeric G protein Gqi5, were transfected into Chinese hamster ovary (CHO-K1) cells; expressed in transfected cells; host or cells: CHO-K1 (Chinese hamster ovary, ATCC), stably co-expressing Gqi5
- Sequence (P08173 1-479): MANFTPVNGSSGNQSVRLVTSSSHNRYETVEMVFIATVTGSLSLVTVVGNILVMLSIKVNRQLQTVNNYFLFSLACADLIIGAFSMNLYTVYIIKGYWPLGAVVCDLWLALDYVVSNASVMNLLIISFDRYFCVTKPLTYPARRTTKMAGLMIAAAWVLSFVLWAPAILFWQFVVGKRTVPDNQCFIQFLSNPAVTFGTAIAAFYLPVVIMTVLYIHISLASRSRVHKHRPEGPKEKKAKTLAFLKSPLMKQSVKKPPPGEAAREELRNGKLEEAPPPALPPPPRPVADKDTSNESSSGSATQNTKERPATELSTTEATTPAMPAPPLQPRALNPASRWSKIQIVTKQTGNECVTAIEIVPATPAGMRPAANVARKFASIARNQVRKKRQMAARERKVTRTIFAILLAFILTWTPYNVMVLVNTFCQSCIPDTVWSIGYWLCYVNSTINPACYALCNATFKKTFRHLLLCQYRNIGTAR
- EXPERIMENT: mAChR M4 cell-based functional assay (calcium flux, decrease of EC80 acetylcholine response)
- EXPERIMENTAL CONTEXT: % ACh maximum at 30 μM; read-out: Human M4 Emin
Please respond with reported remaining activity at 30 µM for every item in the list.
# value in %; strip the unit string

Identify measured remaining activity at 30 µM associated with "COc1c(F)cc(-c2cc(C(F)(F)F)c(N[C@H]3C[C@@H]4CN(CC5CCOCC5)C[C@@H]4C3)nn2)cc1F"
3

Output measured remaining activity at 30 µM for this item: "Fc1cc(OC(F)F)ccc1-c1cc(C(F)(F)F)c(N[C@H]2C[C@@H]3CN(CC4CCOCC4)C[C@@H]3C2)nn1"
3

Specify measured remaining activity at 30 µM for "Cc1ccc(C)c(-c2cc(C(F)(F)F)c(N[C@H]3C[C@@H]4CN(C[C@H]5COCCO5)C[C@@H]4C3)nn2)c1" .
3

Give the measured remaining activity at 30 µM for "Cc1ccc(F)cc1-c1cc(C(F)(F)F)c(N[C@H]2C[C@@H]3CN(C[C@H]4CCOC4)C[C@@H]3C2)nn1"
5

Please indicate remaining activity at 30 µM recorded for "Cc1ccc(C)c(-c2cc(C(F)(F)F)c(N[C@H]3C[C@@H]4CN(C[C@@H]5COCCO5)C[C@@H]4C3)nn2)c1"
3

Supply measured remaining activity at 30 µM of "Fc1ccc(-c2cc(C(F)(F)F)c(N[C@H]3C[C@@H]4CN(CC5CCOCC5)C[C@@H]4C3)nn2)c(F)c1" in your reply.
3

Could you please provide reported remaining activity at 30 µM for "[2H]C([2H])(C1CCOCC1)N1C[C@H]2C[C@H](Nc3nnc(-c4cnn(C)c4)cc3C(F)(F)F)C[C@H]2C1" ? Thanks!
3

Quote remaining activity at 30 µM reported for Cn1cc2cc(-c3cc(C#N)c(N[C@H]4C[C@@H]5CN(CC6CCCOC6)C[C@@H]5C4)nn3)ccc2n1 (single isomer, unassigned) please.
14

Please supply the value of reported remaining activity at 30 µM for the item "CCOc1ccc(F)cc1-c1cc(C(F)(F)F)c(N[C@H]2C[C@@H]3CN(CC4CCOCC4)C[C@@H]3C2)nn1"
3

Identify the reported remaining activity at 30 µM for the following entry. "Cc1ccc(F)cc1-c1cc(C(F)(F)F)c(N[C@H]2C[C@@H]3CN(C[C@@H]4COCCO4)C[C@@H]3C2)nn1"
3

Specify reported remaining activity at 30 µM for the compound shown: "Fc1cc(F)c(-c2cc(C(F)(F)F)c(N[C@H]3C[C@@H]4CN(CC5CCOCC5)C[C@@H]4C3)nn2)cc1F"
3

Tell me remaining activity at 30 µM reported for "CCc1ccc(F)c(-c2cc(C(F)(F)F)c(N[C@H]3C[C@@H]4CN(CC5CCOCC5)C[C@@H]4C3)nn2)c1"
3

State its remaining activity at 30 µM for this compound: "Fc1cccc(-c2cc(C(F)(F)F)c(N[C@H]3C[C@@H]4CN(CC5CCOCC5)C[C@@H]4C3)nn2)c1F"
3

Tell me measured remaining activity at 30 µM for "Cn1cc2cc(-c3cc(C(F)(F)F)c(N[C@H]4C[C@@H]5CN(Cc6ccccn6)C[C@@H]5C4)nn3)ccc2n1" please.
4

Give the reported value of remaining activity at 30 µM for this record: Cc1ccc(F)cc1-c1cc(C(F)(F)F)c(N[C@H]2C[C@@H]3CN(CC4COCCO4)C[C@@H]3C2)nn1 (stereo partly shown)
2

Indicate the recorded remaining activity at 30 µM value for this compound: "Fc1ccc(C2CC2)cc1-c1cc(C(F)(F)F)c(N[C@H]2C[C@@H]3CN(CC4CCOCC4)C[C@@H]3C2)nn1"
3

Output measured remaining activity at 30 µM for this item: "[2H]C([2H])([C@H]1CCCCO1)N1C[C@H]2C[C@H](Nc3nnc(-c4cc(C)ccc4C)cc3C(F)(F)F)C[C@H]2C1"
3

Name the recorded remaining activity at 30 µM of the compound listed here: "[2H]C([2H])(C1CCOCC1)N1C[C@H]2C[C@H](Nc3nnc(-c4cc(F)ccc4C(F)(F)F)cc3C(F)(F)F)C[C@H]2C1"
2

Item "FC(F)(F)c1cc(-c2cccnc2)nnc1N[C@H]1C[C@@H]2CN(CC3CCOCC3)C[C@@H]2C1" : provide remaining activity at 30 µM
3

Give recorded remaining activity at 30 µM. "FC(F)(F)Oc1ccccc1-c1cc(C(F)(F)F)c(N[C@H]2C[C@@H]3CN(CC4CCOCC4)C[C@@H]3C2)nn1"
3

Please supply the value of reported remaining activity at 30 µM for the item "[2H]C([2H])(C1CCOCC1)N1C[C@H]2C[C@H](Nc3nnc(-c4ccc5nn(C)cc5c4)cc3C(F)(F)F)C[C@H]2C1"
3

For the compound "Cc1c(F)cc(F)cc1-c1cc(C(F)(F)F)c(N[C@H]2C[C@@H]3CN(CC4CCOCC4)C[C@@H]3C2)nn1" , report remaining activity at 30 µM.
4

Identify the reported remaining activity at 30 µM for the following entry. "Fc1ccc(F)c(-c2cc(C(F)(F)F)c(N[C@H]3C[C@@H]4CN(Cc5ccccn5)C[C@@H]4C3)nn2)c1"
3

Indicate the recorded remaining activity at 30 µM value for this compound: "FC(F)(F)c1cc(-c2ccccc2)nnc1N[C@H]1C[C@@H]2CN(CC3CCOCC3)C[C@@H]2C1"
3

Recall and state the measured remaining activity at 30 µM for Cc1ccc(F)cc1-c1cc(C(F)(F)F)c(N[C@H]2C[C@@H]3CN(CC4CCCOC4)C[C@@H]3C2)nn1 (stereo partly shown) [Example 28] .
4
